Values from patent US7179823B1

Molecular target: PPARγ-RXRα heterodimer (Homo sapiens, UniProt P37231)
Sequence (P37231 1-477 isoform P37231-2): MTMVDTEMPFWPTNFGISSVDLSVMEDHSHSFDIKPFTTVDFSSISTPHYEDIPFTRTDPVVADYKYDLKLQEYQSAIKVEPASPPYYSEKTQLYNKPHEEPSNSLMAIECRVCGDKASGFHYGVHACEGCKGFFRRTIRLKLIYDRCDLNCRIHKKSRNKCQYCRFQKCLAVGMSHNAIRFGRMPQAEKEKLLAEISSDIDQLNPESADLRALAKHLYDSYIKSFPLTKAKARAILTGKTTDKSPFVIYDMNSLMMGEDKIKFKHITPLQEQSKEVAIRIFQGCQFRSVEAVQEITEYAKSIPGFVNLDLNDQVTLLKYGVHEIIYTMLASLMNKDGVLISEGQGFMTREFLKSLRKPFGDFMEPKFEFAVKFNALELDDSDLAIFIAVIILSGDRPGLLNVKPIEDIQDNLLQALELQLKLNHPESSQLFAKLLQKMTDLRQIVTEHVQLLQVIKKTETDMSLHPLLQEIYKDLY
Sequence (P19793 1-462 partner): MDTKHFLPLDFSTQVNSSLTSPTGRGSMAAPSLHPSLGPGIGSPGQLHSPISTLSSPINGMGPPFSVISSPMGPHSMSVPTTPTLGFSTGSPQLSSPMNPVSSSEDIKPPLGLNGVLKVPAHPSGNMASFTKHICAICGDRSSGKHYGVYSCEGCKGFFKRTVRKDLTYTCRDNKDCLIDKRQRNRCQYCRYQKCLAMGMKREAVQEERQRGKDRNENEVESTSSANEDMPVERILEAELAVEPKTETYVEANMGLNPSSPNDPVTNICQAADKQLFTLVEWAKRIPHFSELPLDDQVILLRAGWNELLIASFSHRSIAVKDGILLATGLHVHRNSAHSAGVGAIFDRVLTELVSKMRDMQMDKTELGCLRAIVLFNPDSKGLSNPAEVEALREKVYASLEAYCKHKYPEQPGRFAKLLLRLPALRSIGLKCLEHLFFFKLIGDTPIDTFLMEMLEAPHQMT
Experiment: PPARγ-RXRα heterodimer ligand activity (luciferase reporter, PPARγ:RXRα:4ERPP/CHO-K1 cells)
Details: 48 hours, concentration for 50% of the maximum fold induction
pEC50: −log10 of the molar value.
EXPERIMENTAL READOUT: pEC50

| COMPOUND STRUCTURE STRING | VALUE REPORTED |
| --- | --- |
| O=C(O)CCc1cn(Cc2ccc(OCc3cccnc3)cc2)cc1-c1ccccc1 | 6.49 |
| O=C(O)CCc1cn(Cc2ccc(OCc3csc(-c4ccco4)n3)cc2)cc1-c1ccccc1 | 7.42 |
| Cc1oc(-c2cccs2)nc1COc1ccc(Cn2cc(CCC(=O)O)c(-c3ccccc3)c2)cc1 | 8.82 |
| O=C(O)CCc1cn(Cc2ccc(OCc3csc(-c4ccccc4)n3)cc2)cc1-c1ccccc1 | 8.01 |
